Reported IC50, MDM2 (Homo sapiens).
Enter your answer as a number in nM; do not include the unit.

Some molecules with recorded IC50:
> print(dat)
                              sample.smiles  parameter  quantitative.result
1  CCc1ccc(OC)c(-c2nc3c(n2C(C)C)[C@]2(C(=O)Nc4cc(Cl)ccc42)N(c2cc(Cl)ccc2C)C3=O)c1       IC50                 3110
2  CCOc1ncc(-c2nc3c(n2C(C)C)[C@@]2(C(=O)Nc4cc(Cl)ccc42)N(c2cc(Cl)ccc2C)C3=O)c(OC)n1       IC50                 2.76
3  COc1ccc(-c2nc3c(n2C(C)C)[C@]2(C(=O)Nc4cc(Cl)ccc42)N(c2cc(Cl)ccc2C)C3=O)c(OC)n1       IC50                  329

So for CCc1ccc(Cl)cc1N1C(=O)c2nc(-c3cnc(OC)nc3OC)n(C(C)C)c2[C@]12C(=O)Nc1cc(Cl)ccc12 , the logged IC50 turned out to be 107

So for COc1nc(N2CCC2)ncc1-c1nc2c(n1C(C)C)[C@@]1(C(=O)Nc3cc(Cl)ccc31)N(c1cc(Cl)ccc1C)C2=O , the logged IC50 turned out to be 2.15

So for COc1cc(N)ccc1-c1nc2c(n1C(C)C)[C@@]1(C(=O)Nc3cc(Cl)ccc31)N(c1cc(Cl)ccc1C)C2=O , the logged IC50 turned out to be 1.72

So for COc1nc(OCCF)ncc1-c1nc2c(n1C(C)C)[C@]1(C(=O)Nc3cc(Cl)ccc31)N(c1cc(Cl)ccc1C)C2=O , the logged IC50 turned out to be 147

So for COc1nc(C2CC2)ncc1-c1nc2c(n1C(C)C)[C@@]1(C(=O)Nc3cc(Cl)ccc31)N(c1cccc(Cl)c1)C2=O , the logged IC50 turned out to be 2.76

So for COc1ncc(-c2nc3c(n2C(C)C)[C@]2(C(=O)Nc4cc(Cl)ccc42)N(c2ccc(C#N)c(Cl)c2)C3=O)c(OC)n1 , the logged IC50 turned out to be 2200
